Listing of recorded cytotoxicity at 10 µM by entry.
protocolSummary: Toxicity liver stage against HepG2, at 10uM
Type: cell-based
Parameters: test concentration 10 uM, cell line HepG2-A16-CD81EGFP
conditionsUsed: human, HepG2-A16-CD81EGFP cells; read-out: INHIBITION
# number then unit; no other words

Some solved entries appear below for comparison.
c1csc(-c2noc(C3CCCNC3)n2)c1 (stereo not drawn) = -2.5%
CCC(=O)Nc1cccc(OCC(=O)N(C)CCCC2CCCO2)c1 (stereo not drawn) = -4.63%
CC1CCCCN1CCNC(=O)c1ccccc1N1CCOCC1 (stereo not drawn) = -4.14%
O=C(CCCc1nc2ccccc2[nH]1)N1CCCC(n2cccn2)C1 (stereo not drawn) = -0.704%

Asked: Fill blank: measured cytotoxicity at 10 µM of the molecule CCCC1CCCN(Cc2csc(-c3cnn(C)c3)n2)CC1 (stereo not drawn) is ____.
Given back: -1.47%

Asked: Quick one: cytotoxicity at 10 µM for `N#Cc1ccc(C(=O)O)nc1C=Cc1cccc(Cl)c1` ?
Given back: 13%

Asked: Return reported cytotoxicity at 10 µM; argument: `CC(C)(C)CN(CCO)C(=O)Nc1cccc(N2CCNC2=O)c1`
Given back: -17.2%

Asked: Sample `COc1cc(C)nc(N2CCN(C(=O)c3cc(C)no3)CC2)n1` — what was its cytotoxicity at 10 µM?
Given back: -30.4%

Asked: What value of cytotoxicity at 10 µM has been recorded for this entry: `Cc1cncc(C(=O)N2CCC(Cn3cc(-c4ccsc4)nn3)CC2)c1`
Given back: -6.69%

Asked: Fill in the blank: the reported cytotoxicity at 10 µM of `CS(=O)(=O)NC[C@]12COC[C@H]1CN(C(=O)c1ccncn1)C2` is ____.
Given back: 9.2%

Asked: Reported cytotoxicity at 10 µM, molecule Cc1cnn(CC2CCN(CC(O)CN3CCC(C)CC3)CC2)c1 (stereo not drawn) : ____
Given back: 5.11%

Asked: What does the data say about its cytotoxicity at 10 µM? Entry: `CCN(C)C(=O)c1ncn2c(C3CCN(S(C)(=O)=O)CC3)ccnc12`
Given back: -3.68%

Asked: What value of cytotoxicity at 10 µM has been recorded for this entry: Cc1cccc(CN2CCOC3(CCCN(CC(=O)N(C)C)C3)C2)n1 (stereo not drawn)
Given back: -106%

Asked: Query: cytotoxicity at 10 µM; subject: `Cn1cc(CN2CCc3c(COCC4CC4)cncc3C2)cn1`
Given back: -6.33%

Asked: I have this molecule here, c1ccc(Cn2cc(CNCC3CCCN3c3cccnn3)cn2)cc1 (stereo not drawn) , and I need its recorded cytotoxicity at 10 µM.
Given back: -4.03%

Asked: Value lookup for cytotoxicity at 10 µM; key = `CNc1nc2c(s1)C(=O)CN(C(=O)[C@@H](N)Cc1cccc(OC)c1)C2`
Given back: -4.08%

Asked: Give its cytotoxicity at 10 µM value. Item: `CCc1nc(CCNc2ccc(S(N)(=O)=O)cc2C#N)cs1`
Given back: -54.6%

Asked: # get_value(readout='cytotoxicity at 10 µM', item= O=C(NC1CCN(c2ccc(-c3ccccc3F)nn2)C1)c1cc[nH]n1 (stereo not drawn) )
Given back: 3.17%

Asked: Record request: cytotoxicity at 10 µM value, item CC1(C)CNC(=O)c2nc(C3CCCN(C(=O)C4CC4)C3)[nH]c2C1 (stereo not drawn)
Given back: 3.74%

Asked: Any idea what cytotoxicity at 10 µM was measured for N#Cc1ccc(S(=O)(=O)NC(=O)C2CC(c3ccccc3)=NO2)cc1 (stereo not drawn) ?
Given back: 0.462%

Asked: Name the reported cytotoxicity at 10 µM value associated with the molecule `CN1CCN(c2cc(CNC(=O)c3ccc(Cl)o3)ccn2)CC1`
Given back: -9.69%

Asked: For `COc1cc2c(c(OC)c1OC)CCN(CCN1CCCCC1)CC2` , what is its reported cytotoxicity at 10 µM?
Given back: -15.7%

Asked: Look up cytotoxicity at 10 µM for this molecule: `CCS(=O)(=O)NCc1nc(C)cc(N2CCCC2)n1`
Given back: -0.714%

Asked: Which cytotoxicity at 10 µM reading was recorded for the molecule CCc1nccn1C1CCCN(C(=O)c2cn3c(C)cccc3n2)C1 (stereo not drawn) ?
Given back: -14.5%

Asked: Return reported cytotoxicity at 10 µM; argument: `CCOc1ccccc1CN(C)C(=O)CN1C(=O)OC[C@@H]1C(C)C`
Given back: -2.24%

Asked: Quick one: cytotoxicity at 10 µM of CC(CN1CCC(c2ccccc2)CC1)n1cnc2ccccc21 (stereo not drawn) ?
Given back: 15.5%

Asked: Quick one: cytotoxicity at 10 µM for `c1ccc2c(N3CCCCC3)cnnc2c1` ?
Given back: -5.34%

Asked: What does the record list as cytotoxicity at 10 µM for `CO[C@H]1CN(Cc2ccc(C)o2)[C@@H]2CCCO[C@H]12` ?
Given back: -144%

Asked: Would you kindly share the measured cytotoxicity at 10 µM for `Cc1ccc(-c2noc(CN3CCc4nn(C)c(=O)cc4C3)n2)cc1` ?
Given back: -8.78%
